- Tested on: Sonic hedgehog protein (Shh)
- assay-name: small-molecule binders of Shh protein, primary screen, biochemical, small-molecule microarray, 635/667 nm fluorescence (AID 1151);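 further: Shh protein binding to compounds spotted on small-molecule microarray slides; score combines spot fluorescence intensity with signal-to-noise across triplicate slides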
- conditions-used: small-molecule microarray binding, 635 nm fluorescence; higher = more signal
parameter: composite z-score
Numbers only.

{"compound": "N#Cc1ccc(NN2C(C(O)c3cc(C(F)(F)F)cc(C(F)(F)F)c3)C=CC3C(=O)N(c4ccccc4)C(=O)C32)cc1 (stereo not given)", "target-or-test-system": "Sonic hedgehog protein (Shh)", "value-measured": -0.0099}

Quick one: give me composite z-score for each item below, same order please.
1. O=C1O[C@@H](c2ccccc2)[C@@H](c2ccccc2)N2[C@@H](c3ccc(O)cc3)[C@]3(C(=O)Nc4ccccc43)[C@@H](C(=O)O)[C@H]12
2. O=C1O[C@@H](c2ccccc2)[C@@H](c2ccccc2)N2[C@@H](c3ccccc3OCCO)[C@]3(C(=O)Nc4ccc(C#CCCO)cc43)[C@@H](C(=O)O)[C@H]12
3. O=C1[C@H]2[C@H]3[C@H](O)[C@H](O)CC(=NOCc4ccccc4)[C@@H]3CC[C@H]2C(=O)N1Cc1ccccc1
4. COc1ccc(-c2ccc3c(n2)CCCN3CC(O)CN2CCCc3nc(C)c(C)cc32)cc1 (stereo not given)
5. O=C1CCCC2OC12C(O)CCc1ccccc1 (stereo not given)
6. CCCC[C@@H](O)C1=C(C)C[C@H]2C(=O)N(Cc3ccccc3)C(=O)[C@H]2[C@H]1CO

-0.192
0.517
0.84
1.19
0.174
0.572

State the recorded composite z-score for every item in the following list.
1. CC(C)=NOCc1cccc(-c2cc(-c3ccccc3)no2)c1
2. COC(=O)[C@@]1(Cc2ccc(F)cc2)[C@H]2c3cc(C(=O)N(C)C)n(Cc4ccc(OC)c(OC)c4)c3C[C@H]2CN1C(=O)c1ccccc1
3. CC[C@@H](c1ccccc1)n1c(=O)n2n(c1=O)[C@H]1[C@H](O)[C@@H]3O[C@@H]3C(=NOCC=C(C)CCC=C(C)C)[C@H]1CC2
4. CC(C)=CCCC(C)=CCON=C1C[C@@H](O)[C@@H](O)[C@@H]2[C@@H]3C(=O)N(C[C@@H]4CCCO4)C(=O)[C@@H]3CC[C@@H]12
5. Cc1ccc(F)cc1S(=O)(=O)N[C@@H]1CCN(Cc2ccc(CC(C)C)cc2)C1
6. O=C1[C@H]2[C@H]3[C@H](O)[C@H](O)CC(=NO[C@@H]4O[C@H](CO)[C@@H](O)[C@H](O)[C@H]4O)[C@@H]3CC[C@H]2C(=O)N1c1ccc(F)cc1F
7. COCCNC(=O)OCC1CCCC2(CC(OC(=O)NCCc3ccc(F)cc3)CC(CCC(=O)N[C@@H](C)C(=O)OC)O2)O1 (stereo not given in full)
8. O=C1[C@H]2[C@H]3[C@H](O)[C@H](O)CC(=NO[C@@H]4O[C@H](CO)[C@@H](O)[C@H](O)[C@H]4O)[C@H]3CC[C@H]2C(=O)N1Cc1ccccc1

1. 0.826
2. -0.715
3. 1.88
4. 1.73
5. 0.15
6. 0.51
7. 1.09
8. 0.439
